System: groundsel (common groundsel, Senecio vulgaris)
experimentalDetails: Test D pre-/postemergence plant response
Assay type: in vivo
conditions: Postemergence; 62 g ai/ha; scale 0 to 100 (0 no effect, 100 complete control)

| molecule | Plant response rating, Groundsel |
| --- | --- |
| CCCn1c(-c2ccccc2)ncc(C(=O)C2=C(O)C3CCC(C3)C2=O)c1=O (stereo not shown) [Compound 226] | 90 |
| COCCCn1c(-c2cc(F)cc(F)c2)ncc(C(=O)C2=C(O)C3CCC(C3)C2=O)c1=O (stereo not shown) [Compound 244] | 100 |
| O=C1CCCC(O)=C1C(=O)c1cnc(-c2cccnc2)n(-c2ccccc2)c1=O [Compound 113] | 100 |
| O=C1CCCC(O)=C1C(=O)c1cnc(-c2ccccc2)n(C2CCCCC2)c1=O [Compound 128] | 100 |

----------
Tested on: large crabgrass (Digitaria sanguinalis)
experimentalDetails: Test A pre-/postemergence plant response
Assay type: in vivo
conditions: Preemergence, 500 g ai/ha; visual injury, 0 to 100 scale (0 no effect, 100 complete control), approx. ten days

| compound | Plant response rating, Crabgrass, Large |
| --- | --- |
| Cc1cc(Cl)ccc1-n1c(-c2ccccc2)ncc(C(=O)C2=C(O)CCCC2=O)c1=O [Compound 43] | 100 |
| CCn1c(-c2cc(F)cc(F)c2)ncc(C(=O)C2=C(O)CCCC2=O)c1=O [Compound 122] | 100 |
| Cc1ccc(-n2c(-c3ccccc3)ncc(C(=O)C3=C(O)CCCC3=O)c2=O)c(Cl)c1 [Compound 41] | 80 |
| O=C1CCCC(O)=C1C(=O)c1cnc(-c2ccsc2)n(C2CCCCC2)c1=O [Compound 99] | 100 |

----------
Test system: Surinam grass (Brachiaria decumbens)
experimentalDetails: Test D pre-/postemergence plant response
Format: in vivo
conditions: Postemergence; 62 g ai/ha; scale 0 to 100 (0 no effect, 100 complete control)
Reported Plant response rating, Surinam Grass by item:
observedProperty: Plant response rating, Surinam Grass

| compound | observedProperty | result |
| --- | --- | --- |
| CCCn1c(-c2ccccc2)ncc(C(=O)C2=C(O)C3CCC(C3)C2=O)c1=O (centres unmarked) | Plant response rating, Surinam Grass | 70 |
| CCCCn1c(-c2ccccc2)ncc(C(=O)C2=C(O)C3CCC(C3)C2=O)c1=O (centres unmarked) | Plant response rating, Surinam Grass | 70 |
| O=C1CCCC(O)=C1C(=O)c1cnc(-c2cccnc2)n(-c2ccccc2)c1=O | Plant response rating, Surinam Grass | 80 |
| Cc1ccc(Cl)cc1-n1c(-c2ccccc2)ncc(C(=O)C2=C(O)CCCC2=O)c1=O | Plant response rating, Surinam Grass | 80 |
| O=C1CCCC(O)=C1C(=O)c1cnc(-c2cccs2)n(-c2ccccc2)c1=O | Plant response rating, Surinam Grass | 90 |

----------
Quick reference: Plant response rating, Foxtail, Giant of the listed items.
System: giant foxtail (Setaria faberii)
experimentalDetails: Test A pre-/postemergence plant response
Assay type: in vivo
conditions: Postemergence, 500 g ai/ha; 0 to 100 scale, 0 = no effect, 100 = complete control; approx. ten days

| compound | Plant response rating, Foxtail, Giant |
| --- | --- |
| O=C1CCCC([O-])=C1C(=O)c1cnc(-c2ccccc2)n(-c2ccc(Cl)cc2)c1=O.[K+] | 80 |
| COc1cccc(-n2c(-c3ccccc3)ncc(C(=O)C3=C(O)CCCC3=O)c2=O)c1 | 50 |
| CCn1c(-c2ccccc2)ncc(C(=O)C2=C(O)CCCC2=O)c1=O | 80 |
| CCCn1c(-c2ccc(Br)cc2)ncc(C(=O)C2=C(O)CCCC2=O)c1=O | 70 |
| O=C1CCCC(O)=C1C(=O)c1cnc(-c2ccccc2)n(C2CC2)c1=O | 80 |
| Cc1ccc(-n2c(-c3cccc(Cl)c3)ncc(C(=O)C3=C(O)CCCC3=O)c2=O)cc1 | 90 |
| Cc1ccc(-n2c(-c3ccccc3)ncc(C(=O)C3=C(O)CCCC3=O)c2=O)c(Cl)c1 | 80 |
| COCCn1c(-c2cccc(Br)c2)ncc(C(=O)C2=C(O)CCCC2=O)c1=O | 80 |
| COCCCn1c(-c2cccc(Cl)c2)ncc(C(=O)C2=C(O)CCCC2=O)c1=O | 80 |
| COCCCn1c(-c2cccc(F)c2)ncc(C(=O)C2=C(O)CCCC2=O)c1=O | 80 |
| Cc1ccc(Cl)cc1-n1c(-c2ccccc2)ncc(C(=O)C2=C(O)CCCC2=O)c1=O | 100 |
| O=C1CCCC(O)=C1C(=O)c1cnc(C2CCCC2)n(-c2ccccc2)c1=O | 90 |
| COCCn1c(-c2ccco2)ncc(C(=O)C2=C(O)CCCC2=O)c1=O | 90 |
| Cc1cc(-n2c(-c3cccc(Br)c3)ncc(C(=O)C3=C(O)CCCC3=O)c2=O)ccc1F | 70 |
| COCCOCCn1c(-c2ccccc2)ncc(C(=O)C2=C(O)CCCC2=O)c1=O | 80 |
| O=C1CCCC(O)=C1C(=O)c1cnc(-c2ccsc2)n(CC2CCCO2)c1=O (centres unmarked) | 90 |
| COCCn1c(-c2cccs2)ncc(C(=O)C2=C(O)CCCC2=O)c1=O | 90 |

----------
Test system: johnsongrass (Sorghum halepense)
experimentalDetails: Test B pre-/postemergence plant response
Type: in vivo
conditions: Preemergence, 125 g ai/ha; scale 0 to 100, 0 no effect, 100 complete control
Source text: […] Treated plants and controls were maintained in a greenhouse for 13 to 15 days, after which time all treated plants were visually evaluated and compared to controls. […]
Listing: Plant response rating, Johnsongrass of selected molecules

| molecule | Plant response rating, Johnsongrass |
| --- | --- |
| Cc1cccc(-n2c(-c3ccccc3)ncc(C(=O)C3=C(O)CCCC3=O)c2=O)c1F | 80 |
| O=C1CCCC(O)=C1C(=O)c1cnc(-c2cccc(Br)c2)n(-c2ccccc2)c1=O | 85 |
| CCCCn1c(CCC)ncc(C(=O)C2=C(O)CCCC2=O)c1=O | 65 |
| Cc1ccc(Cl)cc1-n1c(-c2ccccc2)ncc(C(=O)C2=C(O)CCCC2=O)c1=O | 90 |
| COCCCn1c(-c2cc(F)cc(F)c2)ncc(C(=O)C2=C(O)C3CCC(C3)C2=O)c1=O (stereo not drawn) | 100 |
| CCCCc1ncc(C(=O)C2=C(O)CCCC2=O)c(=O)n1-c1ccccc1C | 0 |

----------
Tested on: Italian ryegrass (Lolium multiflorum)
experimentalDetails: Test B pre-/postemergence plant response
Format: in vivo
conditions: Postemergence, 250 g ai/ha; scale 0 to 100 (0 no effect, 100 complete control); 13 to 15 days
observedProperty: Plant response rating, Ryegrass, Italian

| compound | experimentalSystem | measuredNumber |
| --- | --- | --- |
| Cc1ccc(-n2c(-c3cc(F)cc(F)c3)ncc(C(=O)C3=C(O)CCCC3=O)c2=O)cc1 | Italian ryegrass (Lolium multiflorum) | 90 |
| CCc1cccc(-n2c(-c3ccccc3)ncc(C(=O)C3=C(O)CCCC3=O)c2=O)c1 | Italian ryegrass (Lolium multiflorum) | 60 |
| CCCCn1c(-c2ccccc2)ncc(C(=O)C2=C(O)C3CCC(C3)C2=O)c1=O (stereo not shown) | Italian ryegrass (Lolium multiflorum) | 40 |
| O=C1CCCC(O)=C1C(=O)c1cnc(C2CC2)n(C2CCCCC2)c1=O | Italian ryegrass (Lolium multiflorum) | 35 |

----------
Test system: large crabgrass (Digitaria sanguinalis)
experimentalDetails: Test D pre-/postemergence plant response
Format: in vivo
conditions: Postemergence, 16 g ai/ha; scale 0 to 100
Description: […] Treated plants and controls were maintained in a greenhouse for 14 to 21 days, after which time all species were visually evaluated and compared to controls. […]

| inputSmiles | Plant response rating, Crabgrass, Large |
| --- | --- |
| O=C1CCCC(O)=C1C(=O)c1cnc(-c2ccccc2)n(C2CCCCC2)c1=O | 40 |
| O=C1CCCC(O)=C1C(=O)c1cnc(C2CC2)n(-c2ccccc2)c1=O | 40 |
| O=C1CCCC(O)=C1C(=O)c1cnc(-c2cccs2)n(-c2ccccc2)c1=O | 20 |
| Cc1ccc(F)c(-n2c(-c3ccccc3)ncc(C(=O)C3=C(O)CCCC3=O)c2=O)c1 | 25 |

----------
System: barnyardgrass (Echinochloa crus-galli)
experimentalDetails: Test D pre-/postemergence plant response
Assay type: in vivo
conditions: Postemergence, 31 g ai/ha; scale 0 to 100 (0 no effect, 100 complete control)
observedProperty: Plant response rating, Barnyardgrass

| compound | measuredNumber |
| --- | --- |
| Cc1ccc(Cl)cc1-n1c(-c2ccccc2)ncc(C(=O)C2=C(O)CCCC2=O)c1=O [Compound 52] | 75 |
| O=C1CCCC(O)=C1C(=O)c1cnc(-c2cccnc2)n(-c2ccccc2)c1=O [Compound 113] | 75 |
| CCCn1c(-c2ccccc2)ncc(C(=O)C2=C(O)C3CCC(C3)C2=O)c1=O (stereo not shown) [Compound 226] | 85 |
| O=C1CCCC(O)=C1C(=O)c1cnc(-c2ccccc2)n(C2CCCCC2)c1=O [Compound 128] | 70 |
